Molecular target: Kir2.1 (Homo sapiens)
Sequence (P63252 whole entry): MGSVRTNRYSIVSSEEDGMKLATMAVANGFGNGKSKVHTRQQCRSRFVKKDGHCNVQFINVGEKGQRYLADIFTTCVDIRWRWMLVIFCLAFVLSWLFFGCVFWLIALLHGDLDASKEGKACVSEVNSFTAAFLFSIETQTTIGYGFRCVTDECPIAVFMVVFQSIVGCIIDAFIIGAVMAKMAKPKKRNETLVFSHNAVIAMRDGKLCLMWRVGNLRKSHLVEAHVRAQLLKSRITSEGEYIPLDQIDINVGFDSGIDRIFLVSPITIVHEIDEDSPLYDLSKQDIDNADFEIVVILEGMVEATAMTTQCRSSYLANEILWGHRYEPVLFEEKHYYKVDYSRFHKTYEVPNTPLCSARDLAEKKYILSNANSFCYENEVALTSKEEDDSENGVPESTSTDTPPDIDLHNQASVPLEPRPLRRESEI
Experiment: Inhibition of human Kir2.1 at 10 uM
quantity: inhibition at 10 µM

(Q) Query (compound): COc1cc(Nc2cnc(C#N)c(O[C@H](C)CN(C)C)n2)ncc1-c1cnn(C)c1 ; field requested: inhibition at 10 µM
(A) < 25%

###

Test: Toxicity in po dosed mouse
Format: organism-based
Settings: in vivo
quantity: MTD (mg/kg)
The reply should be a number in mg/kg, with the unit left off.

(Q) Query (molecule): CNc1cc(Nc2cnc(C#N)c(O[C@H](C)CN(C)C)n2)ncc1-c1cnn(C)c1 ; field requested: MTD
(A) 160

###

Test: Plasma concentration in BALB/c mouse at 10 mg/kg, po at 6 hrs
Type: ADME, organism-based
Design: dose 10 mg/kg, route oral
Cut-off 10 nM on concentration at 6 h, inclusive. At or above means YES; below means NO.

(Q) Say whether COc1cc(Nc2cnc(C#N)c(O[C@H](C)CN(C)C)n2)ncc1-c1cnn(C)c1 shows concentration at 6 h of 10 nM or more.
(A) YES

(Q) Say whether CNc1cc(Nc2cnc(C#N)c(O[C@H](C)CN(C)C)n2)ncc1-c1cnn(C)c1 shows concentration at 6 h of 10 nM or more.
(A) YES

(Q) Say whether COc1cc(Nc2cnc(C#N)c(O[C@@H]3CCN(C)C3)n2)ncc1-c1cnn(C)c1 shows concentration at 6 h of 10 nM or more.
(A) NO

(Q) Say whether CNc1cc(Nc2cnc(C#N)c(O[C@H]3CCN(C)C3)n2)ncc1-c1cnn(C)c1 shows concentration at 6 h of 10 nM or more.
(A) NO

(Q) Say whether C#Cc1cnc(Nc2cnc(C#N)c(O[C@H](C)CN(C)C)n2)cc1NC shows concentration at 6 h of 10 nM or more.
(A) NO

(Q) Say whether CNc1cc(Nc2cnc(C#N)c(O[C@H](C)CN(C)C)n2)ncc1C1CC1 shows concentration at 6 h of 10 nM or more.
(A) NO

(Q) Say whether CNc1cc(Nc2cnc(C#N)c(O[C@H](C)CN(C)C)n2)ncc1C(F)(F)F shows concentration at 6 h of 10 nM or more.
(A) YES

(Q) Say whether CNc1cc(Nc2cnc(C#N)c(O[C@H]3CCNC3)n2)ncc1-c1cnn(C)c1 shows concentration at 6 h of 10 nM or more.
(A) NO

(Q) Say whether CNc1cc(Nc2cnc(C#N)c(O[C@@H]3CCN(C)C3)n2)ncc1-c1cnn(C)c1 shows concentration at 6 h of 10 nM or more.
(A) YES

###

Test system: Mus musculus
Assay: Clearance in BALB/c mouse at 10 mg/kg, iv and po
Format: ADME, organism-based
Set-up: dose 10 mg/kg, route oral
Conditions: in vivo
quantity: clearance (L/h)
The reply should be a number in L/h, with the unit left off.

(Q) Field: clearance (Mus musculus). Entry: COc1cc(Nc2cnc(C#N)c(O[C@H](C)CN(C)C)n2)ncc1-c1cnn(C)c1
(A) 0.125

###

Experiment: Aqueous solubility in phosphate buffer at pH 6.5
Type: physicochemical
quantity: solubility thermodynamic (µg/mL)
The reply should be a number in µg/mL, with the unit left off.

(Q) Query (molecule): COc1cc(Nc2cnc(C#N)c(O[C@H](C)CN(C)C)n2)ncc1-c1cnn(C)c1 ; field requested: solubility thermodynamic
(A) 6200

###

System: Caco-2
Conditions: human
Description: Permeability across apical to basolateral side in human Caco2 cells
quantity: permeability

(Q) Query (compound): CNc1cc(Nc2cnc(C#N)c(O[C@H](C)CN(C)C)n2)ncc1-c1cnn(C)c1 ; field requested: permeability
(A) 8.8 ×10⁻⁶ cm/s

(Q) Query (compound): COc1cc(Nc2cnc(C#N)c(O[C@H](C)CN(C)C)n2)ncc1-c1cnn(C)c1 ; field requested: permeability
(A) 29 ×10⁻⁶ cm/s

(Q) Query (compound): CNc1cc(Nc2cnc(C#N)c(O[C@H](C)CN(C)C)n2)ncc1C(F)(F)F ; field requested: permeability
(A) < 4.6 ×10⁻⁶ cm/s

###

Target: Voltage-gated inwardly rectifying potassium channel KCNH2 (Homo sapiens, UniProt Q12809)
Sequence (Q12809 whole entry): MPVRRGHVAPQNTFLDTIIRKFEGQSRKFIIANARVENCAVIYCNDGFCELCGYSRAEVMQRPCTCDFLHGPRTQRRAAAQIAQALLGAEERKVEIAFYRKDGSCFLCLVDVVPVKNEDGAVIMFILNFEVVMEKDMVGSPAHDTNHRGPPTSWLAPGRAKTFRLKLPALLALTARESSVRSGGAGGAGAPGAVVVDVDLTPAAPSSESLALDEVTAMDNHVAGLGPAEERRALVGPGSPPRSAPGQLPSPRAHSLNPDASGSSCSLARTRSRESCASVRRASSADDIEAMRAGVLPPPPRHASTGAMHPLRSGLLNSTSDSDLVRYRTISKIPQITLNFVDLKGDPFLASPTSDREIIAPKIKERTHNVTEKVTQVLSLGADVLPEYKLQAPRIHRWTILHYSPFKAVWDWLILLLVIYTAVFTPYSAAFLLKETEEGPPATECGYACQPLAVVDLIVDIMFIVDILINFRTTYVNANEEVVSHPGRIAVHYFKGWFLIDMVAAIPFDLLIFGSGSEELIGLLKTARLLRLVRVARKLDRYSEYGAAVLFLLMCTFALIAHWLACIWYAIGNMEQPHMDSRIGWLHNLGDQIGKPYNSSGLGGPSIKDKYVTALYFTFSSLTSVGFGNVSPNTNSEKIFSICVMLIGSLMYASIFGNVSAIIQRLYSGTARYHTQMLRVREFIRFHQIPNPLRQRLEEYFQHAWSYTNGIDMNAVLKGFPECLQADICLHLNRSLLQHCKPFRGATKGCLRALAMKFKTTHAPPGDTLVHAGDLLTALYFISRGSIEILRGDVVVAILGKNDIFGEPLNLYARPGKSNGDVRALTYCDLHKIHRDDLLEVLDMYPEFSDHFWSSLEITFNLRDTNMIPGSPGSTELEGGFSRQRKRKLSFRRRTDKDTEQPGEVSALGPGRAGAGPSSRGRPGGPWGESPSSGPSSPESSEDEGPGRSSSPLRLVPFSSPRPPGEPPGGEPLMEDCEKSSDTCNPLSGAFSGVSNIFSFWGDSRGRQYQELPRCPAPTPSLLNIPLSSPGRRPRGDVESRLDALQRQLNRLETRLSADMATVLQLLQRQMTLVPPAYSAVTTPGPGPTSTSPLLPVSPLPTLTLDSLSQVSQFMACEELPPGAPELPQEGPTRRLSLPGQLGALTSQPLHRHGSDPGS
quantity: pIC50
// pIC50 is dimensionless: -log10 of concentration (M)

(Q) Field: pIC50 (Voltage-gated inwardly rectifying potassium channel KCNH2 (Homo sapiens, UniProt Q12809)). Entry: COc1cc(Nc2cnc(C#N)c(O[C@H](C)CN(C)C)n2)ncc1-c1cnn(C)c1
(A) 5.30

(Q) Field: pIC50 (Voltage-gated inwardly rectifying potassium channel KCNH2 (Homo sapiens, UniProt Q12809)). Entry: CNc1cc(Nc2cnc(C#N)c(O[C@H](C)CN(C)C)n2)ncc1C(=O)OC
(A) 5.30

(Q) Field: pIC50 (Voltage-gated inwardly rectifying potassium channel KCNH2 (Homo sapiens, UniProt Q12809)). Entry: C[C@H](CN(C)C)Oc1nc(Nc2cc3cccc(Cl)c3cn2)cnc1C#N
(A) 5.30
